Recorded values, source patent US11957761B2.

# procedure-summary: in vivo
# condition-description: male, Beagle, dog, plasma, sc, 10 ug/kg
quantity-kind: Tmax (h)
Value expressed in h; do not type the unit.

Ask | Entry `CC[C@H](C)[C@@H]1NC(=O)[C@H](CC(=O)O)NC(=O)[C@H](CC(C)C)NC(=O)c2ccc(-c3ccc(N4CCN(C(=O)c5ccccc5-c5ccccc5C(=O)N5CCN(c6ccc(-c7ccc8cc7CNC(=O)[C@@H]7CCCN7[C@H](C(=O)NC(C)(C)C)[C@H](C)NC(=O)[C@H]([C@@H](C)CC)NC(=O)[C@H](CC(=O)O)NC(=O)[C@H](CC(C)C)NC8=O)cc6)CC5)CC4)cc3)c(c2)CNC(=O)[C@@H]2CCCN2[C@H](C(=O)NC(C)(C)C)[C@H](C)NC1=O` has what Tmax?
Reply | 20

###

# procedure-summary: in vivo
# condition-description: male, Beagle, dog, plasma, sc, 10 ug/kg
quantity-kind: AUC(0-inf) (µM·h)
Value expressed in µM·h; do not type the unit.

Ask | Entry `CC[C@H](C)[C@@H]1NC(=O)[C@H](CC(=O)O)NC(=O)[C@H](CC(C)C)NC(=O)c2ccc(-c3ccc(N4CCN(C(=O)c5ccccc5-c5ccccc5C(=O)N5CCN(c6ccc(-c7ccc8cc7CNC(=O)[C@@H]7CCCN7[C@H](C(=O)NC(C)(C)C)[C@H](C)NC(=O)[C@H]([C@@H](C)CC)NC(=O)[C@H](CC(=O)O)NC(=O)[C@H](CC(C)C)NC8=O)cc6)CC5)CC4)cc3)c(c2)CNC(=O)[C@@H]2CCCN2[C@H](C(=O)NC(C)(C)C)[C@H](C)NC1=O` has what AUC(0-inf)?
Reply | 2.46

###

# procedure-summary: in vivo
# condition-description: male, Beagle, dog, plasma, sc, 50 ug/kg
quantity-kind: AUC(0-inf)

Ask | Entry `CC[C@H](C)[C@@H]1NC(=O)[C@H](CC(=O)O)NC(=O)[C@H](CC(C)C)NC(=O)c2ccc(-c3ccc(N4CCN(C(=O)c5ccccc5-c5ccccc5C(=O)N5CCN(c6ccc(-c7ccc8cc7CNC(=O)[C@@H]7CCCN7[C@H](C(=O)NC(C)(C)C)[C@H](C)NC(=O)[C@H]([C@@H](C)CC)NC(=O)[C@H](CC(=O)O)NC(=O)[C@H](CC(C)C)NC8=O)cc6)CC5)CC4)cc3)c(c2)CNC(=O)[C@@H]2CCCN2[C@H](C(=O)NC(C)(C)C)[C@H](C)NC1=O` has what AUC(0-inf)?
Reply | 11.6 µM·h

###

# procedure-summary: in vivo
# condition-description: male, rat, plasma, iv, 510 nmol/kg
quantity-kind: AUC(0-inf)
# include the unit after the value

Ask | Entry CC[C@H](C)[C@@H]1NC(=O)[C@H](CC(=O)O)NC(=O)[C@H](CC(C)C)NC(=O)c2ccc(-c3ccc(N4CCN(C(=O)c5ccccc5-c5ccccc5C(=O)N5CCN(c6ccc(-c7ccc8cc7CNC(=O)[C@@H]7CCCN7[C@H](C(=O)NC(C)(C)C)[C@H](C)NC(=O)[C@H]([C@@H](C)CC)NC(=O)[C@H](CC(=O)O)NC(=O)[C@H](CC(C)C)NC8=O)cc6)CC5)CC4)cc3)c(c2)CNC(=O)[C@@H]2CCCN2[C@H](C(=O)NC(C)(C)C)[C@H](C)NC1=O [Compound 1] has what AUC(0-inf)?
Reply | 32.2 µM·h
